Here, each record is paired with measured IC50 data.
- Test system: U-937
- measurement protocol: Antagonistic activity to inhibit the calcium mobilization response in human U-937 cells
- Type: functional, cell-based
Respond numerically; units are nM and should not be typed.

Worked examples follow.
Tell me the measured IC50 of COc1ccc(CCCCCCCCOc2ccc(CSc3cccc(OC)c3)nc2/C=C/C(=O)O)cc1 , please.
290

Also need Nc1cccc(SCc2ccc(OCCCCCCCCc3ccc(C(F)(F)F)cc3)c(/C=C/C(=O)O)n2)c1 , thanks.
78

Cool, now CCCCCCCCCCCCOc1ccc(C[S+]([O-])c2cccc(C(=O)O)c2)nc1/C=C/C(=O)O (stereo not drawn)
930

Also, COc1ccc(CCCCCCCCOc2ccc(C[S+]([O-])c3cccc(CS(=O)(=O)C(F)(F)F)c3)nc2/C=C/C(=O)O)cc1 (stereo not drawn) please.
550

Moving on to COc1ccc(CCCCCCCCOc2ccc(CSc3cccc(NS(=O)(=O)C(F)(F)F)c3)nc2/C=C/C(=O)O)cc1
340

Likewise for COc1ccc(CCCCCCCCOc2ccc(CSc3cccc(N(C)C)c3)nc2/C=C/C(=O)O)cc1 ?
460

Would you kindly repeat that for Nc1cccc([S+]([O-])Cc2ccc(OCCCCCCCCc3ccccc3)c(/C=C/C(=O)O)n2)c1 (stereo not drawn) ?
160

Please find the next compound below.
What value of measured IC50 is listed for COc1ccc(CCCCCCCCOc2ccc(CSc3cccc(NC(=O)C(=O)O)c3)nc2/C=C/C(=O)O)cc1 ?
480

====

- experimental system: Leukotriene B4 receptor 1 (Homo sapiens)
- Sequence (Q15722 whole entry): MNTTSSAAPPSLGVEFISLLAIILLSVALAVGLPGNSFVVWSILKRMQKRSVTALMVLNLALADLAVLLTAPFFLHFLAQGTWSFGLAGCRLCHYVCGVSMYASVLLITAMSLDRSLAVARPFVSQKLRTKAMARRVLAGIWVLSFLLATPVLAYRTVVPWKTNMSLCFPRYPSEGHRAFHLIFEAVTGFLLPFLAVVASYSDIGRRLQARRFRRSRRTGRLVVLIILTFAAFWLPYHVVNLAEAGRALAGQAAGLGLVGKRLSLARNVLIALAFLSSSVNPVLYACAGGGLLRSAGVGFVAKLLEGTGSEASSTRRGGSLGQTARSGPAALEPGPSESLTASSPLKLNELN
- measurement protocol: Binding affinity of [3H]LTB4 to receptors on intact human polymorphonuclear leukocytes
pKi: −log10 of the molar value.
Kind request: treat 7 as inclusive, so pKi at 7 or higher is 1 (yes), anything lower is 0 (no).

Record CCCCCCCCCCCCOc1ccc(COc2cccc(C(=O)O)c2)nc1/C=C/C(=O)O ; criterion: pKi no lower than 7. Met?
0 (no)

Next compound: Nc1cccc(SCc2ccc(OCCCCCCCCc3ccc(C(F)(F)F)cc3)c(/C=C/C(=O)O)n2)c1
1 (yes)

Another: COc1ccc(CCCCCCOc2ccc(CC(O)c3cccc(C(=O)O)c3)nc2/C=C/C(=O)O)cc1 (stereo not drawn)
0 (no)

====

Catalogue of Ki values
- experimental system: UniProtKB Q15722
- measurement protocol: Binding affinity of [3H]LTB4 to receptors on intact human polymorphonuclear leukocytes
Please give a number only; it is taken to be in µM.

Return reported Ki; argument: COc1ccc(CCCCCCCCOc2ccc(CSc3cccc(NC(=O)C(=O)O)c3)nc2/C=C/C(=O)O)cc1
0.072

// next record COc1ccc(CCCCCCCCOc2ccc(CSc3cccc(C(=O)O)c3)nc2/C=C/C(=O)O)cc1
0.08

Item: CCCCCCCCCCCCOc1ccc(C[S+]([O-])c2cccc(C(=O)O)c2)nc1/C=C/C(=O)O (stereo not given)
0.129

Quick one: COc1ccc(CCCCCCCCOc2ccc(C[S+]([O-])c3cccc(C(=O)O)c3)nc2/C=C/C(=O)O)cc1 (stereo not given)
0.151

Proceed to COc1ccc(CCCCCCCCOc2ccc(COc3cccc(C(=O)O)c3)[n+]([O-])c2/C=C/C(=O)O)cc1
0.15
